Assay: Plasma budesonide pharmacokinetics in asthmatic children, twice a day nebulization over six weeks
Type: in vivo, human (asthmatic children)
Conditions: human, plasma, inhaled, 0.25 mg; Day 42; asthmatic children; read-out: Cmax (geometric mean)
Description: The budesonide was administered twice a day by a nebulizer for six weeks (42 days). In one subset, budesonide was administered at a dose of 0.25 mg. In the other subset, budesonide was administered at a dose of 0.135 mg. Tmaxs averaged about 4.3 minutes (SD±0.63 minutes) for the two dosage strengths and time of treatment that ranged from zero to six weeks. […]
Measured parameter: Cmax at 42 days (ng/mL)

{"columns": ["Molecule", "Measured value"],
 "data": [
  ["CCCC1O[C@@H]2C[C@H]3[C@@H]4CCC5=CC(=O)C=C[C@]5(C)[C@H]4[C@@H](O)C[C@]3(C)[C@]2(C(=O)CO)O1 (stereo partly shown) [Budesonide, budesonide]", 0.746]
]}

====

assay: Plasma budesonide pharmacokinetics in asthmatic children, twice a day nebulization over six weeks; type: in vivo, human (asthmatic children); details: human, plasma, inhaled; 0.135 mg dose; Day 42; asthmatic children; read-out: T1/2 (geometric mean)

{"columns": ["Compound", "half-life at 42 days"],
 "data": [
  ["CCCC1O[C@@H]2C[C@H]3[C@@H]4CCC5=CC(=O)C=C[C@]5(C)[C@H]4[C@@H](O)C[C@]3(C)[C@]2(C(=O)CO)O1 (stereo partly shown) [Budesonide, budesonide]", "1.19 h"]
]}

====

test: Plasma budesonide pharmacokinetics in asthmatic children, twice a day nebulization over six weeks; format: in vivo, human (asthmatic children); settings: human, plasma, inhaled; 0.25 mg dose; Day 42; asthmatic children; read-out: Tmax (geometric mean) (converted)

{"columns": ["Molecule", "Tmax at 42 days [min]"],
 "data": [
  ["CCCC1O[C@@H]2C[C@H]3[C@@H]4CCC5=CC(=O)C=C[C@]5(C)[C@H]4[C@@H](O)C[C@]3(C)[C@]2(C(=O)CO)O1 (stereo partly shown) [Budesonide, budesonide]", 5]
]}

====

test: Plasma budesonide pharmacokinetics in asthmatic children, twice a day nebulization over six weeks; type: in vivo, human (asthmatic children); conditions: human, plasma, inhaled, 0.135 mg; Day 42; asthmatic children; read-out: Cmax (geometric mean)

{"columns": ["Compound", "Cmax at 42 days"],
 "data": [
  ["CCCC1O[C@@H]2C[C@H]3[C@@H]4CCC5=CC(=O)C=C[C@]5(C)[C@H]4[C@@H](O)C[C@]3(C)[C@]2(C(=O)CO)O1 (stereo partly shown) [Budesonide, budesonide]", "~0.672 ng/mL"]
]}

====

experiment: Plasma budesonide pharmacokinetics in asthmatic children, twice a day nebulization over six weeks; assay type: in vivo, human (asthmatic children); settings: human, plasma, inhaled, 0.135 mg; First Dose; asthmatic children; read-out: Cmax (geometric mean)

{"columns": ["Compound", "Cmax"],
 "data": [
  ["CCCC1O[C@@H]2C[C@H]3[C@@H]4CCC5=CC(=O)C=C[C@]5(C)[C@H]4[C@@H](O)C[C@]3(C)[C@]2(C(=O)CO)O1 (stereo partly shown) [Budesonide, budesonide]", "~0.214 ng/mL"]
]}

====

assay: Plasma budesonide pharmacokinetics in asthmatic children, twice a day nebulization over six weeks; type: in vivo, human (asthmatic children); details: human, plasma, inhaled; 0.25 mg dose; Day 42; asthmatic children; read-out: T1/2 (geometric mean)

{"columns": ["Compound", "half-life at 42 days (h)"],
 "data": [
  ["CCCC1O[C@@H]2C[C@H]3[C@@H]4CCC5=CC(=O)C=C[C@]5(C)[C@H]4[C@@H](O)C[C@]3(C)[C@]2(C(=O)CO)O1 (stereo partly shown) [Budesonide, budesonide]", 1.26]
]}
